Reference source for all entries: patent US20220259593A1

The molecules listed here are annotated with their Mean relative activity.
- Tested on: K562 CRISPRi cells
- ASSAY SUMMARY: Constant region variant library pooled growth screen, K562
- Type: cell-based, human
- EXPERIMENTAL CONTEXT: sgRNA constant region variants; relative to the original, un-modified constant region cr995 (= 1)
The reply should be a number, written without any unit.

Below: 3 molecules and their reported Mean relative activity.
cr428 (nucleic acid, listed as DNA, chemistry not fully specified) guide: GTTTAAGAGCTAAGCTGGAAACAGCATAGCAAGTTTAAATAAGGCTAGTCCGTTATCAACTTGCATAAGTGGCACCGAGTCGGTGCT	1.013
cr121 (nucleic acid, listed as DNA, chemistry not fully specified) guide: GTTTAAGAGCTAAGCTGGAAACAGCATAGCAAGTTTAAATAAGGCTAGTCCGTTATCATCATGAAAATGAGGCACCGAGTCGGTGCT	1.014
cr323 (nucleic acid, listed as DNA, chemistry not fully specified) guide: GTTTAAGAGCTAAGCTGGAAACAGCATAGCAGGTTTAAATAAGGCTAGTCCGTTATCAACTTGACAAAGTGGCACCGAGTCGGTGCT	1.02

Now examine the next entry.
Item cr713 (nucleic acid, listed as DNA, chemistry not fully specified) guide: GTTTAAGAGCTAAGCTGGAAACAGCATAGCAAGTTTAAATAAGGCTAGTCCGTTATCAACTAGAGATAGTGGCACCGAGTCGGTGCT has what recorded Mean relative activity?
0.9979
